applied-conditions: in n-propanol, 283.15 K
measure-name: solubility (mole fraction)
One number for each entry.

[in] I'd like to know its solubility (mole fraction). The compound in question is NC(=O)c1ccc(N)cc1
[out] 0.00401

----------
applied-conditions: in acetonitrile, 298.15 K
measure-name: solubility (mole fraction)

[in] I'd like to know its solubility (mole fraction). The molecule in question is NC(=O)c1ccc(N)cc1
[out] 0.00251

----------
applied-conditions: in isopropanol, 298.15 K
measure-name: solubility (mole fraction)
Answers are plain numbers.

[in] I'd like to know its solubility (mole fraction). The molecule in question is NC(=O)c1ccc(N)cc1
[out] 0.00431

----------
applied-conditions: in methyl acetate, 308.15 K
measure-name: solubility (mole fraction)
Answers are plain numbers.

[in] I'd like to know its solubility (mole fraction). The molecule in question is NC(=O)c1ccc(N)cc1
[out] 0.00247

----------
applied-conditions: in acetone, 288.15 K
measure-name: solubility (mole fraction)
One number for each entry.

[in] I'd like to know its solubility (mole fraction). The compound in question is NC(=O)c1ccc(N)cc1
[out] 0.00795

----------
applied-conditions: in isopropanol, 293.15 K
measure-name: solubility (mole fraction)
One number for each entry.

[in] I'd like to know its solubility (mole fraction). The compound in question is NC(=O)c1ccc(N)cc1
[out] 0.00393

----------
applied-conditions: in ethyl acetate, 283.15 K
measure-name: solubility (mole fraction)
One number for each entry.

[in] I'd like to know its solubility (mole fraction). The compound in question is NC(=O)c1ccc(N)cc1
[out] 0.000539

----------
applied-conditions: in acetonitrile, 288.15 K
measure-name: solubility (mole fraction)
Numbers only.

[in] I'd like to know its solubility (mole fraction). The compound in question is NC(=O)c1ccc(N)cc1
[out] 0.00204

----------
applied-conditions: in n-butyl acetate, 323.15 K
measure-name: solubility (mole fraction)
Numbers only.

[in] I'd like to know its solubility (mole fraction). The compound in question is NC(=O)c1ccc(N)cc1
[out] 0.00331

----------
applied-conditions: in acetone, 283.15 K
measure-name: solubility (mole fraction)
Answers are plain numbers.

[in] I'd like to know its solubility (mole fraction). The molecule in question is NC(=O)c1ccc(N)cc1
[out] 0.00745

----------
applied-conditions: in acetonitrile, 308.15 K
measure-name: solubility (mole fraction)
Answers are plain numbers.

[in] I'd like to know its solubility (mole fraction). The compound in question is NC(=O)c1ccc(N)cc1
[out] 0.0036

----------
applied-conditions: in water, 283.15 K
measure-name: solubility (mole fraction)
Answers are plain numbers.

[in] I'd like to know its solubility (mole fraction). The molecule in question is NC(=O)c1ccc(N)cc1
[out] 0.000858

----------
applied-conditions: in isobutanol, 293.15 K
measure-name: solubility (mole fraction)
Answers are plain numbers.

[in] I'd like to know its solubility (mole fraction). The compound in question is NC(=O)c1ccc(N)cc1
[out] 0.00263

----------
applied-conditions: in water, 318.15 K
measure-name: solubility (mole fraction)
Numbers only.

[in] I'd like to know its solubility (mole fraction). The compound in question is NC(=O)c1ccc(N)cc1
[out] 0.00364

----------
applied-conditions: in n-butyl acetate, 313.15 K
measure-name: solubility (mole fraction)
Numbers only.

[in] I'd like to know its solubility (mole fraction). The compound in question is NC(=O)c1ccc(N)cc1
[out] 0.00229

All figures here come from BigSolDB 2.1.
